- test_system: recombinant human FLAP protein (Homo sapiens)
- Sequence (P20292 1-161): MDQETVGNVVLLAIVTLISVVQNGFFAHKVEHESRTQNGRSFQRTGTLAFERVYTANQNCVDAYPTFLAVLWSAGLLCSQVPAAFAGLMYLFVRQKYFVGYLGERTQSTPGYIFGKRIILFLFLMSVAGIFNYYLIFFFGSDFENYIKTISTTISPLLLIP
- assay_name: FLAP binding assay (SPA, displacement of [125I]L-691,831)
- condition: membranes of sf9 cells expressing human FLAP, [125I]L-691,831 probe; read-out: hFLAP binding IC50
pIC50: −log10 of the molar value.
measurement_kind: pIC50

In the examples that follow, each entry is paired with its recorded pIC50.
>>> df
                                   compound  reported
0  Nc1ncc(-c2ccc(C3(C(=O)Nc4ccccc4-c4ccccc4)CCC3)cc2)cn1      7.25
1  Nc1ncc(-c2ccc(C3(C(=O)Nc4cccc(OCc5ccccc5)c4)CCOCC3)cc2)cn1      7.03
2  Nc1ncc(-c2ccc(C3(C(=O)Nc4ccncc4)CCOCC3)cc2)cn1      6.87

(I) Nc1ncc(-c2ccc(C3(C(=O)Nc4ccccc4)CCC3)cc2)cn1
(II) Cc1nc(-c2ccc(NC(=O)C3(c4ccc(-c5cnc6[nH]cnc6c5)cc4)CCOCC3)nc2)cs1
Which shows the larger pIC50 value: I or II ? Identify your selection by its label. I
(I: 7.86, II: 7.57)

(P) Cc1nc(-c2ccc(NC(=O)C3(c4ccc(-c5cnc6[nH]ccc6c5)cc4)CCOCC3)nc2)cs1
(Q) COc1ccc(-c2ccc(NC(=O)C(C)(c3ccc(-c4cnc(N)nc4)cc3)C(C)C)nc2)cn1 (centres unmarked)
(R) Nc1ncc(-c2ccc(C3(C(=O)Nc4ccc(N5CCOCC5)cc4)CCOCC3)cc2)cn1
Reorder: pIC50, max to min. Please list each label once, in the requested order. P, Q, R
(P: 8.68, Q: 8.17, R: 6.31)

(a) Nc1ncc(-c2ccc(C3(C(=O)Nc4ccc(N5CCOCC5)c(Cl)c4)CCC3)cc2)cn1
(b) COc1cncc(-c2ccc(NC(=O)C(C)(c3ccc(-c4cnc5c(c4)CCN5)cc3)C(C)C)nc2)c1 (centres unmarked)
(c) CC(C)C(C)(C(=O)Nc1ccccn1)c1ccc(-c2cnc(N)nc2)cc1 (centres unmarked)
(d) Nc1ncc(-c2ccc(C3(C(=O)Nc4nc(-c5ccccc5)cs4)CCOCC3)cc2)cn1
(e) CCOC(=O)c1ccnc(NC(=O)C2(c3ccc(-c4cnc(N)nc4)cc3)CCOCC2)c1
# desc sort on pIC50 across 5 compounds Please express your ranking as an ordered list of the labels. b, a, c, d, e
(b: 8.85, a: 8.48, c: 8.05, d: 7.80, e: 6.74)

(P) COc1cncc(-c2ccc(NC(=O)C3(c4ccc(-c5cnc6c(c5)CCN6)cc4)CCOCC3)nc2)c1
(Q) Nc1ncc(-c2ccc(C3(C(=O)Nc4ccccn4)CCC3)cc2)cn1
When their pIC50 values are compared, which is larger, P or Q ? Lab log: write the label of the selected item as the result. Q

(A) Cc1nc(-c2ccc(NC(=O)C3(c4ccc(-c5cnc(N)nc5)cc4)CCCCC3)cc2)cs1
(B) Nc1ncc(-c2ccc(C3(C(=O)Nc4nc(-c5ccncc5)cs4)CCOCC3)cc2)cn1
Would you mind telling me which has the lower recorded pIC50 between A and B ? Return value: the label identifying the chosen record. A

(P) N#Cc1ccc(NC(=O)C2(c3ccc(-c4cnc(N)nc4)cc3)CCOCC2)cc1Cl
(Q) COc1cncc(-c2ccc(C(C)(C(=O)Nc3ccc(OCc4ccccn4)cc3)C(C)C)cc2)c1 (centres unmarked)
Exercise: compare P and Q ; which one has the greater pIC50? Answer by quoting the chosen item's label. P
(P: 7.95, Q: 6.74)

(a) Nc1ncc(-c2ccc(C3(C(=O)Nc4ccc(Oc5ccccc5)cc4)CCOCC3)cc2)cn1
(b) Cc1nc(NC(=O)C2(c3ccc(-c4cnc(N)nc4)cc3)CCOCC2)ccc1C#N
Dear colleague, could you let me know whether a or b has the lower recorded pIC50? Thanks. Selection: enter the item's label. b
(b: 7.20, a: 7.80)

(1) CC(=O)Nc1ccc(-c2ccc(C3(C(=O)Nc4ccc(-c5csc(C)n5)cn4)CCOCC3)cc2)cn1
(2) CN(C)S(=O)(=O)c1ccc(NC(=O)C2(c3ccc(-c4cnc(N)nc4)cc3)CCC2)cc1
Two entries are listed, 1 and 2 . Which one carries the higher pIC50? Indicate which entry you chose by stating its label. 2
(2: 8.40, 1: 6.57)

Values compiled from patent US9073895B2.
